# system: CYP2C9 (Homo sapiens)
# Sequence (P11712 whole entry): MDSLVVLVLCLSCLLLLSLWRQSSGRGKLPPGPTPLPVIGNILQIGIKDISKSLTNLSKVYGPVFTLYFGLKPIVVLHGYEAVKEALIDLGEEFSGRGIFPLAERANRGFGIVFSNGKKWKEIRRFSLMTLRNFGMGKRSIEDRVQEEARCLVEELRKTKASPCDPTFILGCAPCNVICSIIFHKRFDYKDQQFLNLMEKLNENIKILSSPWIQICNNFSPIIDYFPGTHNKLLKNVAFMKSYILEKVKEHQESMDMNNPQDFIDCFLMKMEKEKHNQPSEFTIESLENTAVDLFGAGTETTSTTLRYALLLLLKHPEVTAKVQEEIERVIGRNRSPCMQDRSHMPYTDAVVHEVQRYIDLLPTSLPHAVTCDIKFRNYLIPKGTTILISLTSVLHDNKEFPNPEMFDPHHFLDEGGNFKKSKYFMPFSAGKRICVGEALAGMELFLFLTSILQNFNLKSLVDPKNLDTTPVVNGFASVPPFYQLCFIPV
# protocol details: in vitro
# study conditions: probe Diclofenac
property: inhibition at 10 µM (%)
# output: bare number, implied unit %

Could you share which inhibition at 10 µM value was measured for C[C@@H](C(=O)Nc1ccnc(-c2cnc(N3CCC[C@H]3C(F)(F)F)nc2)n1)n1cnc2c1c(=O)n(C)c(=O)n2C [Compound 2] ? 22

---

# protocol details: Solubility in fasted-state simulated intestinal fluid (FaSSIF)
# Format: physicochemical
# study conditions: thermodynamic from solid, pH 6.5, 25° C., read-out: Solubility in the FaSSIF model
# Procedure: Solubility was also determined in a fasted-state simulated intestinal fluid (FaSSIF) assay. Briefly, Compound 2 was added to the FaSSIF medium (bile salts, NaOH (0.420 g), NaH2PO4 (3.438 g), NaCl (6.186 g), pH to 6.5, at 25° C., and brought to a 1 L volume) agitated for 30 hours and sampled, centrifuged, and analyzed by UPLC. Solubility in the FaSSIF model was determined to be 1.19 mg/ml.
property: solubility at 30 h (µg/mL)
Numeric only. Scale: µg/mL

Look at this compound and give its reported solubility at 30 h. C[C@@H](C(=O)Nc1ccnc(-c2cnc(N3CCC[C@H]3C(F)(F)F)nc2)n1)n1cnc2c1c(=O)n(C)c(=O)n2C [Compound 2] 1190
